In this section, each of the compounds is paired with its reported pKi.
- SUBJECT_OF_TEST: human motilin receptor (Homo sapiens, UniProt O43193)
- Sequence (O43193 whole entry): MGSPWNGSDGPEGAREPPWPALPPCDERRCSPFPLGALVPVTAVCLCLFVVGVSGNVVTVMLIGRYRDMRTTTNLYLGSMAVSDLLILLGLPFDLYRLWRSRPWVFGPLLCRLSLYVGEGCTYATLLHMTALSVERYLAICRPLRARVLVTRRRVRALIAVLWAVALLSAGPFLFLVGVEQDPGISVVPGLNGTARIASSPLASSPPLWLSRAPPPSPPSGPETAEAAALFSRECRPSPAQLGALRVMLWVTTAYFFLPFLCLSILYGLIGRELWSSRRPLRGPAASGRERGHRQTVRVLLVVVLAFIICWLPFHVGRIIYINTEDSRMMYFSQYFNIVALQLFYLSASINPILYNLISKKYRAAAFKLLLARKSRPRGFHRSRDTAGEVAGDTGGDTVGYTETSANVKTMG
- ASSAY_METHOD_TEXT: Competitive radioligand binding assay (motilin receptor)
- Set-up: purchased PerkinElmer (SignalScreen) 6110544; host or cells: CHO cells, stably transfected; membranes
- DETAILS: [125I]-motilin competition, membranes of CHO cells with human motilin receptor; read-out: Ki
pKi: −log10 of the molar value.

# annotated cases, reported pKi shown
INSERT INTO measurements (compound, result) VALUES
  ('CC(C)[C@H]1NC(=O)[C@@H](Cc2cccc(Cl)c2)NCCOc2ccccc2CCCNC(=O)[C@H](CCNC(=N)N)NC1=O [Compound 507]', '≥ 7.00'),
  ('Cc1nnnn1C[C@@H]1NC(=O)[C@@H](C(C)C)NC(=O)[C@@H](Cc2cccc(C(F)(F)F)c2)NCCOc2ccccc2CCCNC1=O [Compound 527]', '≥ 7.00');

compound CC(C)[C@H]1NC(=O)[C@@H](Cc2ccc(Cl)cc2)NCCOc2ccccc2CCCNC(=O)[C@H](CNC(N)=O)NC1=O [Compound 577] , pKi observed: ≥ 6.00

compound CC(C)[C@H]1NC(=O)[C@@H](Cc2cccc(F)c2)NCCOc2ccccc2C[C@@H](C)CNC(=O)[C@H](CC2CC2)NC1=O [Compound 587] , pKi observed: ≥ 7.00

compound CCC[C@@H]1NC(=O)[C@@H](C(C)C)NC(=O)[C@@H](Cc2ccc(F)c(F)c2)N[C@@H](C)COc2ccccc2CCCNC1=O [Compound 561] , pKi observed: ≥ 8.00

compound CC(C)[C@H]1NC(=O)[C@@H](Cc2cccc(C(F)(F)F)c2)NCCOc2ccccc2CCCNC(=O)[C@H](CN=[N+]=[N-])NC1=O [Compound 537] , pKi observed: ≥ 8.00

compound CC(C)[C@H]1NC(=O)[C@@H](Cc2cccc(Cl)c2)NCCOc2ccccc2CCCNC(=O)[C@H](CNc2nccs2)NC1=O [Compound 509] , pKi observed: ≥ 7.00
